test system: BT-549; assay: drug sensitivity score (DSS), CellTiter-Glo (DSS (AUC-based score)); higher = stronger drug effect (viability inhibition or cytotoxicity); extreme values may be limits of the assay; conditions: incubation time: 72 h
test readout: drug sensitivity score
Provide a numeric answer; units are not to be included.

Completed entries (count: 5):
>  <compound>
S=c1[nH]cnc2nc[nH]c12 [Mercaptopurine]

>  <test readout>
drug sensitivity score

>  <observed measurement>
0

$$$$
>  <compound>
COc1cc(Nc2ncc3c(n2)-c2ccc(Cl)cc2C(c2c(F)cccc2OC)=NC3)ccc1C(=O)O [Alisertib]

>  <test readout>
drug sensitivity score

>  <observed measurement>
12.7

$$$$
>  <compound>
Cc1ccc(F)c(NC(=O)Nc2ccc(-c3cccc4[nH]nc(N)c34)cc2)c1 [Linifanib]

>  <test readout>
drug sensitivity score

>  <observed measurement>
0

$$$$
>  <compound>
COc1cccc2cc(-c3nc([C@H]4CC[C@H](C(=O)O)CC4)n4ncnc(N)c34)[nH]c12 [OSI-027]

>  <test readout>
drug sensitivity score

>  <observed measurement>
6.24

$$$$
>  <compound>
CS(=O)(=O)c1ccc(C(=O)Nc2ccc(Cl)c(-c3ccccn3)c2)c(Cl)c1 [Vismodegib]

>  <test readout>
drug sensitivity score

>  <observed measurement>
0

$$$$

Enquiry: What does the data say about its drug sensitivity score? Entry: Nc1nc(Cl)nc2c1ncn2[C@H]1C[C@H](O)[C@@H](CO)O1 [Cladribine]
Return: 6.43

---

test system: MDA-MB-468; conditions: 72 h
test readout: EC50, CellTiter-Glo (nM)
Give just the numeric value; nM need not be written.

Completed entries (count: 3):
>  <compound structure string>
CC[C@]1(O)C[C@@H]2CN(CCc3c([nH]c4ccccc34)[C@@](C(=O)OC)(c3cc4c(cc3OC)N(C)[C@H]3[C@@](O)(C(=O)OC)[C@H](OC(C)=O)[C@]5(CC)C=CCN6CC[C@]43[C@@H]65)C2)C1

>  <EC50, CellTiter-Glo, nM>
2.95

$$$$
>  <compound structure string>
Nc1ccn([C@@H]2O[C@H](CO)[C@@H](O)[C@@H]2O)c(=O)n1

>  <EC50, CellTiter-Glo, nM>
618

$$$$
>  <compound structure string>
C=CCNC1=C2C[C@@H](C)C[C@H](OC)[C@H](O)[C@@H](C)/C=C(\C)[C@H](OC(N)=O)[C@@H](OC)/C=C\C=C(/C)C(=O)NC(=CC1=O)C2=O

>  <EC50, CellTiter-Glo, nM>
532

$$$$

Enquiry: What does the data say about its EC50, CellTiter-Glo? Entry: CO[C@H]1C[C@@H]2CC[C@@H](C)[C@@](O)(O2)C(=O)C(=O)N2CCCC[C@H]2C(=O)O[C@H]([C@H](C)C[C@@H]2CC[C@@H](OC(=O)C(C)(CO)CO)[C@H](OC)C2)CC(=O)[C@H](C)/C=C(\C)[C@@H](O)[C@@H](OC)C(=O)[C@H](C)C[C@H](C)/C=C/C=C/C=C/1C
Return: 0.15

---

test system: MDA-MB-453; conditions: 72 h
test readout: EC50, CellTiter-Blue viability
Quick note: number first, unit second.

Completed entries (count: 5):
>  <compound>
CN1CC[C@H](c2c(O)cc(O)c3c(=O)cc(-c4ccccc4Cl)oc23)[C@H](O)C1 [Alvocidib]

>  <EC50, CellTiter-Blue viability>
165 nM

$$$$
>  <compound>
CN1CCC(COc2cnc(-c3cccc(Cn4nc(-c5cccc(C#N)c5)ccc4=O)c3)nc2)CC1

>  <EC50, CellTiter-Blue viability>
3640 nM

$$$$
>  <compound>
CO[C@H]1C[C@@H]2CC[C@@H](C)[C@@](O)(O2)C(=O)C(=O)N2CCCC[C@H]2C(=O)O[C@H]([C@H](C)C[C@@H]2CC[C@@H](OC(=O)C(C)(CO)CO)[C@H](OC)C2)CC(=O)[C@H](C)/C=C(\C)[C@@H](O)[C@@H](OC)C(=O)[C@H](C)C[C@H](C)/C=C/C=C/C=C/1C [Temsirolimus]

>  <EC50, CellTiter-Blue viability>
0.37 nM

$$$$
>  <compound>
COc1cccc2cc(-c3nc([C@H]4CC[C@H](C(=O)O)CC4)n4ncnc(N)c34)[nH]c12 [OSI-027]

>  <EC50, CellTiter-Blue viability>
460 nM

$$$$
>  <compound>
COc1cc(Nc2ncc3c(n2)-c2ccc(Cl)cc2C(c2c(F)cccc2OC)=NC3)ccc1C(=O)O [MLN8237]

>  <EC50, CellTiter-Blue viability>
11.1 nM

$$$$

Moving on to the next compound.
Enquiry: What does the data say about its EC50, CellTiter-Blue viability? Entry: COc1cccc2c1C(=O)c1c(O)c3c(c(O)c1C2=O)C[C@@](O)(C(=O)CO)C[C@@H]3O[C@H]1C[C@H](N)[C@H](O)[C@H](C)O1 [Doxorubicin]
Return: 409 nM

---

system: CAL-51; assay: drug sensitivity score (DSS), CellTiter-Blue viability (DSS (AUC-based score)); higher = stronger viability inhibition; extreme values may be limits of the assay; settings: incubation time: 72 h
Rule: drug sensitivity score under 0.4 gives FALSE, otherwise TRUE.

Enquiry: Would you say COc1cc(Nc2ncc3c(n2)-c2ccc(Cl)cc2C(c2c(F)cccc2OC)=NC3)ccc1C(=O)O shows drug sensitivity score at minimum 0.4?
Return: TRUE

Enquiry: Continue with CN(C)C/C=C/C(=O)Nc1cc2c(Nc3ccc(F)c(Cl)c3)ncnc2cc1O[C@H]1CCOC1
Return: TRUE

Enquiry: Continue with N#CC[C@H](C1CCCC1)n1cc(-c2ncnc3[nH]ccc23)cn1
Return: FALSE

Enquiry: Continue with Nc1ccn([C@@H]2O[C@H](CO)[C@@H](O)[C@@H]2O)c(=O)n1
Return: TRUE

---

# normalised response per entry
tested on: CAL-120; assay: normalised response (% of control), CellTiter-Glo; higher = more viable cells (100 = DMSO, 0 = benzethonium chloride kill control); settings: incubation time: 72 h
Give just the numeric value; % need not be written.

Completed entries (count: 2):
>  <compound>
C[C@]1(c2nc3c(C(N)=O)cccc3[nH]2)CCCN1 [Veliparib] (10000 nM)

>  <test readout>
normalised response

>  <observed measurement>
93.1

$$$$
>  <compound>
CO[C@H]1C[C@@H]2CC[C@@H](C)[C@@](O)(O2)C(=O)C(=O)N2CCCC[C@H]2C(=O)O[C@H]([C@H](C)C[C@@H]2CC[C@@H](OC(=O)C(C)(CO)CO)[C@H](OC)C2)CC(=O)[C@H](C)/C=C(\C)[C@@H](O)[C@@H](OC)C(=O)[C@H](C)C[C@H](C)/C=C/C=C/C=C/1C [Temsirolimus] (100 nM)

>  <test readout>
normalised response

>  <observed measurement>
65.4

$$$$

Enquiry: What does the data say about its normalised response? Entry: COc1cccc2c1C(=O)c1c(O)c3c(c(O)c1C2=O)C[C@@](O)(C(=O)CO)C[C@@H]3O[C@H]1C[C@H](N)[C@H](O)[C@H](C)O1 [Doxorubicin] (1000 nM)
Return: 43.4

Enquiry: Continue with CN1CCC(COc2cnc(-c3cccc(Cn4nc(-c5cccc(C#N)c5)ccc4=O)c3)nc2)CC1 (1000 nM)
Return: 96.1

Enquiry: Continue with O=C(c1ccc(C(=O)N2CCC(N3CCCC3)CC2)c(Nc2ccccc2)c1)N1CCC(N2CCCC2)CC1 [UNC1215] (30000 nM)
Return: 107

Enquiry: Continue with Clc1ccc(C(c2ccccc2Cl)C(Cl)Cl)cc1 (configuration not stated) [Mitotane] (10000 nM)
Return: 99.2

Enquiry: Continue with Nc1ccn([C@@H]2O[C@H](CO)[C@@H](O)[C@@H]2O)c(=O)n1 [Cytarabine] (10000 nM)
Return: 88.1

---

# normalised viability per entry
system: MDA-MB-453; assay: normalised viability (% of control), CellTiter-Blue; higher = more viable cells (about 100 = DMSO control); settings: 3 nM; incubation time: 72 h
Give just the numeric value; % need not be written.

>  <compound structure string>
C[C@]1(c2nc3c(C(N)=O)cccc3[nH]2)CCCN1

>  <normalised viability, %>
109

$$$$

Enquiry: What does the data say about its normalised viability? Entry: Cc1c2oc3c(C)ccc(C(=O)N[C@@H]4C(=O)N[C@H](C(C)C)C(=O)N5CCC[C@H]5C(=O)N(C)CC(=O)N(C)[C@@H](C(C)C)C(=O)O[C@@H]4C)c3nc-2c(C(=O)N[C@@H]2C(=O)N[C@H](C(C)C)C(=O)N3CCC[C@H]3C(=O)N(C)CC(=O)N(C)[C@@H](C(C)C)C(=O)O[C@@H]2C)c(N)c1=O
Return: 42.9

Enquiry: Continue with C=CCNC1=C2C[C@@H](C)C[C@H](OC)[C@H](O)[C@@H](C)/C=C(\C)[C@H](OC(N)=O)[C@@H](OC)/C=C\C=C(/C)C(=O)NC(=CC1=O)C2=O
Return: 121

Enquiry: Continue with N#CC[C@H](C1CCCC1)n1cc(-c2ncnc3[nH]ccc23)cn1
Return: 86.8

Enquiry: Continue with COc1cc(Nc2ncc3c(n2)-c2ccc(Cl)cc2C(c2c(F)cccc2OC)=NC3)ccc1C(=O)O
Return: 91.8

Enquiry: Continue with Cc1ccc(F)c(NC(=O)Nc2ccc(-c3cccc4[nH]nc(N)c34)cc2)c1
Return: 111
